System: Staphylococcus aureus
Test summary: Antibacterial activity against Staphylococcus aureus ATCC 29213 assessed as growth inhibition by broth microdilution method
Type: functional
Endpoint name: MIC

* O=C(O)CNc1ccccc1C(=O)O | > 64 mg/L
* CC(C)[C@H]1C(=O)O[C@H](C(C)C)C(=O)N(C)[C@@H](C(C)C)C(=O)O[C@H](C(C)C)C(=O)N(C)[C@@H](C(C)C)C(=O)O[C@H](C(C)C)C(=O)N1C | > 64 mg/L
* C=C1NC(=O)C(C)C(CCC(C)C(=O)/C=C/C(C)=C/CCC(C)CCCCCC)OC(=O)C(CCC(N)=O)NC(=O)C(C)CNC1=O (stereo unspecified) | > 64 mg/L
* C[C@@H](O)C[C@@H](O)Cc1cc2cc(O)cc(O)c2c(=O)o1 | > 64 mg/L
* Cc1cc(=O)cc(Cc2cc(O)cc(O)c2)o1 | > 64 mg/L
* CC(=O)C[C@@H](O)Cc1cc2cc(O)cc(O)c2c(=O)o1 | > 64 mg/L
